// data source = PubChem BioAssay AID651558

test: qHTS Assay to Find Inhibitors of Chronic Active B-Cell Receptor Signaling: Hit Validation in Primary Screen; conditions: ABC-DLBCL IkB-luc/CBR ratio luminescence, 4 h; series mostly up to 46.1 µM; note: nearly all actives have a fitted effect of over 75% in size; note: potency is the fitted concentration of half-maximal effect
In all, about 1,200 compounds went through this assay and about 480 (40%) were called active. Not shown: some 29% with an inconclusive outcome. This is one part of the list.
measured.attribute: Potency

Below, 4 compounds whose answers are already recorded.
N#CC1=C(N)Oc2cc(N)ccc2C1c1cccc(Br)c1 (stereo not drawn)    4.11 µM (active)
CC(C)COc1ccc(C(=O)Nc2cc(S(=O)(=O)N3CCOCC3)ccc2N2CCCC2)cc1    inactive
O=C(/C=C/c1ccc(-c2ccccc2[N+](=O)[O-])o1)c1ccccc1    inactive
CN(C)c1ccc2c(c1)OC(N)=C(C#N)C2c1cccc(F)c1 (stereo not drawn)    0.82 µM (active)

Prompt: Tell me the measured Potency of "O=Cc1ccc(O)c2ncccc12" , please.
Response: inactive

Prompt: Tell me the measured Potency of "CNC(=S)N/N=C1\C(=O)c2cccc3cccc1c23" , please.
Response: 18.4 µM (active)

---

assay: qHTS Assay to Find Inhibitors of Chronic Active B-Cell Receptor Signaling: Hit Validation in Primary Screen; conditions: ABC-DLBCL IkB-luc/CBR ratio luminescence, 4 h; series mostly up to 46.1 µM; note: nearly all actives have a fitted effect of over 75% in size
In all, about 1,200 compounds went through this assay and about 480 (40%) were called active. Inconclusive results (about 29%) are left out. Calls come from the whole dose curve; as a rule, active = well fitted inhibition curve with a large enough effect; inconclusive = small, poorly fitted or top-dose-only effect; inactive = no such curve, though single readings can be large or run the other way. Some of the results follow.
Your response should consist of one outcome taken from active, inactive

Prompt: Recorded call for "CC(=NNC(=O)c1cc(C)nc2ccccc12)c1ccc(N2CCOCC2)cc1" ?
Response: inactive

Prompt: Recorded call for "COc1ccc(-c2c/c(=N\c3nc(-c4ccccc4)c(C)s3)c3ccccc3o2)cc1O" ?
Response: active

Prompt: Recorded call for "O=C(N/N=C/c1cccs1)c1cc(-c2ccncc2)nc2ccccc12" ?
Response: active

Prompt: Recorded call for "O=C(NC(=S)Nc1cccc(F)c1)c1cccc([N+](=O)[O-])c1" ?
Response: inactive

Prompt: Recorded call for "Oc1ccc(NCc2cccc(OCc3ccccc3)c2)cc1" ?
Response: inactive

Prompt: Recorded call for "CCOC(=O)/C=C/C(=O)OCC(=O)Nc1ccc(OC)c(Cl)c1" ?
Response: inactive

---

test: qHTS Assay to Find Inhibitors of Chronic Active B-Cell Receptor Signaling: Hit Validation in Primary Screen; details: ABC-DLBCL IkB-luc/CBR ratio luminescence, 4 h; series mostly up to 46.1 µM; note: nearly all actives have a fitted effect of over 75% in size
Out of some 1,200 compounds screened, about 480 (40%) were called active. Inconclusive results (about 29%) are left out. Calls come from the whole dose curve; as a rule, active = well fitted inhibition curve with a large enough effect; inconclusive = small, poorly fitted or top-dose-only effect; inactive = no such curve, though single readings can be large or run the other way. This is one part of the list.
Your response should consist of one outcome taken from y = active, n = inactive

Prompt: Recorded call for "CCCn1nnc(NC(=S)NC(=O)c2ccc(-c3ccc(Br)cc3)o2)n1" ?
Response: n

Prompt: Recorded call for "Cc1ccc(NS(=O)(=O)c2ccc(-c3cnc(C4CC4)o3)cc2)c(C)c1" ?
Response: y

Prompt: Recorded call for "CCCNS(=O)(=O)c1cccc(C(=O)OCc2cc(=O)oc3cc(OC)ccc23)c1" ?
Response: y

Prompt: Recorded call for "O=C(c1ccc(Cl)cc1)c1cc([N+](=O)[O-])ccc1N1CCOCC1" ?
Response: y

Prompt: Recorded call for "N#CC(C#N)=C(N)CSc1cccc[n+]1[O-]" ?
Response: n

Prompt: Recorded call for "O=C(CSc1cccc[n+]1[O-])c1ccccc1Br" ?
Response: n

Prompt: Recorded call for "COc1cc2c(cc1OC)-c1cc(NC3CCCCC3)nc(=O)n1CC2" ?
Response: y

Prompt: Recorded call for "Cn1c(=S)c2[nH]c(SCCN3CCCC3)nc2n(C)c1=O" ?
Response: n

Prompt: Recorded call for Nc1ncnc2c1ncn2C1OC(C(=O)NC2CC2)C(O)C1O (stereo not given) ?
Response: y

Prompt: Recorded call for "O=C(CSc1cccc[n+]1[O-])c1ccc(Cl)cc1" ?
Response: n

Prompt: Recorded call for "Cc1ccc(CSc2nc3ccccc3cc2C=O)cc1" ?
Response: y

Prompt: Recorded call for CCOC(=O)C1=C(C)c2ccccc2N(C(=O)OC)C1(C)C(=O)OCC (stereo not given) ?
Response: n

Prompt: Recorded call for "O=S(=O)(Nc1cccc2cccnc12)c1ccccc1" ?
Response: y

Prompt: Recorded call for "CCN(CC)c1ccc2cc(-c3nc4ccccc4n3C)c(=O)oc2c1" ?
Response: y

Prompt: Recorded call for CCOC(=O)CSC1=C(C#N)C(c2ccc(C)o2)CC(=O)N1 (stereo not given) ?
Response: y

Prompt: Recorded call for "CN(C)c1nc(=Nc2cccc(Cl)c2)ss1" ?
Response: y

Prompt: Recorded call for "CCN(CC)S(=O)(=O)c1ccc(N2CCOCC2)c(NC(=O)c2c3c(nc4ccccc24)CCC3)c1" ?
Response: n

Prompt: Recorded call for COc1ccc(C2CC(c3ccncc3)=NN2c2ccc(S(N)(=O)=O)cc2)cc1 (stereo not given) ?
Response: n

Prompt: Recorded call for "O=C(CSc1ncccc1C(=O)O)c1ccc2ccccc2c1" ?
Response: n

Prompt: Recorded call for "C/C(=N\NC(=O)COc1ccc(C(C)(C)C)cc1)c1ccc(N2CCOCC2)cc1" ?
Response: n

Prompt: Recorded call for "COc1ccccc1-c1nnc2n1N=C(c1ccc(O)c(O)c1)CS2" ?
Response: y

Prompt: Recorded call for "COC(=O)c1ccc(CNC(=O)Cn2cnc3c(NCc4ccccc4)ncnc32)cc1" ?
Response: n

Prompt: Recorded call for "COc1cccc(CSc2nc3ccccc3cc2C=O)c1" ?
Response: y

Prompt: Recorded call for O=C(OCC(O)CO)c1ccccc1Nc1ccnc2cc(Cl)ccc12 (stereo not given) ?
Response: y

Prompt: Recorded call for "CCCNc1ccc(C(=O)OCC)cc1[N+](=O)[O-]" ?
Response: n

Prompt: Recorded call for "COc1ccccc1NC(=O)N1CCC(c2nc3cc(C)c(C)cc3[nH]2)CC1" ?
Response: y

Prompt: Recorded call for "O=[N+]([O-])c1cc(F)c2cccnc2c1O" ?
Response: n

Prompt: Recorded call for "O=C(Oc1ccc2ccc(OC(=O)N3CCOCC3)cc2c1)N1CCOCC1" ?
Response: n

Prompt: Recorded call for "CCC(=O)Nc1nonc1-c1nc2ccccc2n1Cc1cccc2ccccc12" ?
Response: y

Prompt: Recorded call for CC1=NN(C(N)=S)C(=O)C1N=Nc1ccccc1 (stereo not given) ?
Response: n

Prompt: Recorded call for "CCOC(=O)c1ccccc1NC(=O)Cn1c(-c2nonc2N)nc2ccccc21" ?
Response: y

Prompt: Recorded call for "Cc1ccc2[nH]c(-c3cccc(F)c3)cc(=O)c2c1" ?
Response: y

Prompt: Recorded call for COc1ccc(C2CC(c3ccc(OC)c(OC)c3)=NN2C(=O)c2ccccc2)cc1 (stereo not given) ?
Response: y

Prompt: Recorded call for "CCn1c2ccccc2c2cc(Nc3cc(C)nc4ncnn34)ccc21" ?
Response: y

Prompt: Recorded call for "COc1ccc(CNc2nc(NCc3ccc(OC)cc3)c3ncn(C4CCCC4)c3n2)cc1" ?
Response: y

Prompt: Recorded call for "Cc1cc(C)c2nc3sc(C(=O)N4CCOCC4)c(N)c3cc2c1" ?
Response: y

Prompt: Recorded call for "CCCC(=O)OCCNc1cc(Sc2nccn2C)c2nonc2c1[N+](=O)[O-]" ?
Response: y

Prompt: Recorded call for "COc1ccc(C(=O)c2cc([N+](=O)[O-])ccc2N2CCOCC2)cc1" ?
Response: y

Prompt: Recorded call for "Cc1c(C(=O)Oc2cccc3cccnc23)oc2ccccc12" ?
Response: n

Prompt: Recorded call for "CCOc1cc(-c2cc(-c3ccc(NC(C)=O)cc3)nc(N)c2C#N)ccc1O" ?
Response: y

Prompt: Recorded call for "COc1ccccc1N1CCN(C(=O)c2cc(=O)c3cc(C)cc(C)c3o2)CC1" ?
Response: y

Prompt: Recorded call for "CCOc1cc(/C=C2\CN(C)C/C(=C\c3ccc(O)c(OCC)c3)C2=O)ccc1O" ?
Response: y

Prompt: Recorded call for "O=C(CSc1cc(Cl)ccc1Cl)Nc1ccc(N2CCOCC2)cc1" ?
Response: n

Prompt: Recorded call for "Nc1nc(Cl)nc2c1ncn2[C@@H]1O[C@H](CO)[C@@H](O)[C@H]1O" ?
Response: y

Prompt: Recorded call for "COc1cc2c(cc1OC)-c1cc(NC3CCCCCC3)nc(=O)n1CC2" ?
Response: y

---

experiment: qHTS Assay to Find Inhibitors of Chronic Active B-Cell Receptor Signaling: Hit Validation in Primary Screen; conditions: ABC-DLBCL IkB-luc/CBR ratio luminescence, 4 h; series mostly up to 46.1 µM; note: nearly all actives have a fitted effect of over 75% in size
Screen size: about 1,200 compounds; about 480 (40%) were called active. About 29% were inconclusive and are not listed. Calls come from the whole dose curve; as a rule, active = well fitted inhibition curve with a large enough effect; inconclusive = small, poorly fitted or top-dose-only effect; inactive = no such curve, though single readings can be large or run the other way. This is one part of the list.
Your response should consist of one outcome taken from active, inactive

Prompt: Recorded call for "Cc1ccc(Cl)cc1NC(=S)N/N=C/c1cccc2ccccc12" ?
Response: inactive

Prompt: Recorded call for "COc1ccc(COc2cc(-c3cccc(OC)c3)nc3ccc(N)cc23)cc1" ?
Response: active

Prompt: Recorded call for "COc1ccc(/C=N/NC(=O)COc2ccccc2-c2ccccc2)cc1" ?
Response: active

Prompt: Recorded call for "O=C(COc1ccccc1-c1ccccc1)N/N=C/c1cccc2ccccc12" ?
Response: active

Prompt: Recorded call for "O=C(COc1ccccc1-c1ccccc1)NN=C1CCCC1" ?
Response: inactive

Prompt: Recorded call for "C/C(=N/NC(=O)COc1cc(C)ccc1C(C)C)C(=O)O" ?
Response: inactive
